meta.source: ChEMBL document CHEMBL4831479

Test system: Mycobacterium tuberculosis
Assay: Antimycobacterial activity against Mycobacterium tuberculosis H37Rv infected in mouse J774.1 cells assessed as change in bacterial colony forming units at 10 ug/ml incubated for 3 days
Assay type: functional
Conditions: dose 10 µg/ml; time 3 day
Label TRUE for high-side Activity (at or above 1 deltalog10CFU) and FALSE for low-side Activity (below it).

> print(dat)
                      smiles.representation  category.label
1  CCOC(=O)NC(=O)c1ccsc1NC(=O)c1nc2ccccc2s1            TRUE
2  CCOC(=O)NC(=O)c1ccsc1NC(=O)c1ccc(C(=O)N2CCCCC2)c(F)c1            TRUE
3  CCOC(=O)NC(=O)c1ccsc1NC(=O)c1ccc(C(=O)N2CCCCC2)cc1            TRUE
4  COC(=O)NC(=O)c1ccsc1NC(=O)c1ccc(C(=O)N2CCCCC2)c(F)c1           FALSE
5  COC(=O)NC(=O)c1ccsc1NC(=O)c1ccc(C(=O)N2CCCCC2)cc1           FALSE

---

Test system: Mycobacterium tuberculosis
Assay: Antimycobacterial activity against Mycobacterium tuberculosis H37Rv infected in mouse J774.1 cells assessed as reduction in bacterial colony forming units at 5 ug/ml incubated for 3 days (reference value: 5.52 +/- 0.18 log10CFU)
Type: functional
Details: dose 5 µg/ml; time 3 day
RECORDED METRIC: Activity

> print(dat)
                      smiles.representation  value.measured
1  O=C(Nc1sccc1C(=O)Nc1nccc(C(F)(F)F)n1)c1ccc(C(=O)N2CCCCC2)cc1   4.59 log10CFU
2  COC(=O)NC(=O)c1ccsc1NC(=O)c1ccc(C(=O)N2CCCCC2)c(F)c1   4.75 log10CFU
3  CCOC(=O)NC(=O)c1ccsc1NC(=O)c1ccc(C(=O)N2CCCCC2)c(F)c1   4.41 log10CFU
4  COC(=O)NC(=O)c1ccsc1NC(=O)c1ccc(C(=O)N2CCCCC2)cc1   5.06 log10CFU
5  CCOC(=O)NC(=O)c1ccsc1NC(=O)c1ccc(C(=O)N2CCCCC2)cc1   4.54 log10CFU
6  CCOC(=O)NC(=O)c1ccsc1NC(=O)c1nc2ccccc2s1   4.91 log10CFU
